study_system: UniProt P56817
Sequence (P56817 46-501): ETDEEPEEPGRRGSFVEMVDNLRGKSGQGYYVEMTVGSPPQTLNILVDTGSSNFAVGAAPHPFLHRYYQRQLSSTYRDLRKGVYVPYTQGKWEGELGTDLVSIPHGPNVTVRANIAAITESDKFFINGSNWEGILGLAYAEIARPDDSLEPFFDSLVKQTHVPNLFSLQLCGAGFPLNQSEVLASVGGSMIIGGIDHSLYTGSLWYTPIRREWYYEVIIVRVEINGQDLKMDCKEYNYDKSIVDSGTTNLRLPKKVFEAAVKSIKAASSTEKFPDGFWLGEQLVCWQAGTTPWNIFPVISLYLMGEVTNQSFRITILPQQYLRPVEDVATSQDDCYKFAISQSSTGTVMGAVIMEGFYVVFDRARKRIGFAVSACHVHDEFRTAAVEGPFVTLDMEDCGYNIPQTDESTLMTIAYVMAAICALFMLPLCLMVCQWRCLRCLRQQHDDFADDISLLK
pIC50: −log10 of the molar value. Where a SMILES comes first, the peptide text is derived from it. The star is where a group is joined. Cbz = O=C(OCc1ccccc1)*
# label = t if pIC50 >= 6 else f

Would you please look over these solved cases?
                                   compound  class
0  CC(C)=CCOC(=O)[C@H](C)NC(=O)[C@@H]1CCCN1C(=O)CNC(=O)C(C)C [Compound 16, Isobut-Gly-Pro-Ala-O-dimethylallyl]      t
1  C[C@H](NC(=O)[C@@H]1CCCN1C(=O)CNC(=O)OCc1ccccc1)C(=O)O [Compound 22, Cbz-Gly-Pro-Ala-OH] (Cbz-Gly-Pro-Ala-OH)      t
2  COC(=O)[C@H](C)NC(=O)[C@@H]1CCCN1C(=O)CNC(=O)OCc1ccccc1 [Compound 21, Cbz-Gly-Pro-Ala-OMe] (Cbz-Gly-Pro-Ala-OMe)      f
3  CC(C)C(=O)NCC(=O)N1CCC[C@H]1C(=O)N[C@@H](C)C(=O)OC/C=C/c1ccccc1 [Compound 17, Isobut-Gly-Pro-Ala-O-Cinnamyl]      t
4  CC(C)=CCC/C(C)=C/COC(=O)[C@H](C)NC(=O)[C@@H]1CCCN1C(=O)CNC(=O)OCc1ccccc1 [Compound 26, Cbz-Gly-Pro-Ala-O-Geranyl]      t
5  CC(C)=CCC/C(C)=C/COC(=O)[C@H](C)NC(=O)[C@@H]1CCCN1C(=O)CNC(=O)C(C)C [Compound 18, Isobut-Gly-Pro-Ala-O-Geranyl]      f

Continue with the compound presented below.
### Prompt Can COC(=O)[C@H](C)NC(=O)[C@@H]1CCCN1C(=O)CN [Compound 30, NH2-Gly-Pro-Ala-OMe] (H-Gly-Pro-Ala-OMe) be said to have pIC50 at or above 6?
### Response t
